- test.target: sGCcat (Homo sapiens, UniProt Q02108+Q02153)
- Construct: a smaller construct of the catalytic domain (sGCcat)
- Sequence (Q02108 481-608 limits assumed): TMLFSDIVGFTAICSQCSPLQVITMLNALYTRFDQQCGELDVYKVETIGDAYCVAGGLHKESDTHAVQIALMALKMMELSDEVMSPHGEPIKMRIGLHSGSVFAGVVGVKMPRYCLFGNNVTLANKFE
- Sequence (Q02153 421-554 limits assumed): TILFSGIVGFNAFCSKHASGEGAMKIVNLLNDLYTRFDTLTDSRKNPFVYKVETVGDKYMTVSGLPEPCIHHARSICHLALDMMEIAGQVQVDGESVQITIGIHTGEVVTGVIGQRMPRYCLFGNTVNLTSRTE
- assay.details: SPR binding to catalytic domain of sGC
readout: Kd (µM)

1) O=[N+]([O-])c1ccc2nc(Nc3ccc(O)cc3)c(Nc3ccc(O)cc3)nc2c1 : 11.4

----------
- test.target: purified bovine lung sGC (Bos taurus, UniProt P16068+P19687)
- Construct: screened at 100 μM against purified bovine lung sGC; purchased Enzo lifesciences ALX-202-039-C005; host or cells: bovine lung
- Sequence (P19687 whole entry): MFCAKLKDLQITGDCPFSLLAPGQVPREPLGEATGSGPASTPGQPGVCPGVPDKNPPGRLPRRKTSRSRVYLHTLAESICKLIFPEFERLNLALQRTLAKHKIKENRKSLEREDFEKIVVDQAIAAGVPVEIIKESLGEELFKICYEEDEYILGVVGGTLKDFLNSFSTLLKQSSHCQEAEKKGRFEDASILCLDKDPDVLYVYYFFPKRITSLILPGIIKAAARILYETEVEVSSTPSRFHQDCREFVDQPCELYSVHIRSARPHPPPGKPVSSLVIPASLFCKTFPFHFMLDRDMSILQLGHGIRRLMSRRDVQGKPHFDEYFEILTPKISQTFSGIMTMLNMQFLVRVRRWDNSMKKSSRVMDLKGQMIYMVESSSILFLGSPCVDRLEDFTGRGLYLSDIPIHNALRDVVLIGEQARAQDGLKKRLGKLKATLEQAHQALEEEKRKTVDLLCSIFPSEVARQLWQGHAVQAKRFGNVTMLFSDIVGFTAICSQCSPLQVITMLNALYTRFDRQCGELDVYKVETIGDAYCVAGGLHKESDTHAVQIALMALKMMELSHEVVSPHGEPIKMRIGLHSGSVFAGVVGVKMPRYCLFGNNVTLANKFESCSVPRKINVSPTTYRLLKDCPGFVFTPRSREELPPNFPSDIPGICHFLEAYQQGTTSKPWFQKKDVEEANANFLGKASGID
- Sequence (P16068 whole entry): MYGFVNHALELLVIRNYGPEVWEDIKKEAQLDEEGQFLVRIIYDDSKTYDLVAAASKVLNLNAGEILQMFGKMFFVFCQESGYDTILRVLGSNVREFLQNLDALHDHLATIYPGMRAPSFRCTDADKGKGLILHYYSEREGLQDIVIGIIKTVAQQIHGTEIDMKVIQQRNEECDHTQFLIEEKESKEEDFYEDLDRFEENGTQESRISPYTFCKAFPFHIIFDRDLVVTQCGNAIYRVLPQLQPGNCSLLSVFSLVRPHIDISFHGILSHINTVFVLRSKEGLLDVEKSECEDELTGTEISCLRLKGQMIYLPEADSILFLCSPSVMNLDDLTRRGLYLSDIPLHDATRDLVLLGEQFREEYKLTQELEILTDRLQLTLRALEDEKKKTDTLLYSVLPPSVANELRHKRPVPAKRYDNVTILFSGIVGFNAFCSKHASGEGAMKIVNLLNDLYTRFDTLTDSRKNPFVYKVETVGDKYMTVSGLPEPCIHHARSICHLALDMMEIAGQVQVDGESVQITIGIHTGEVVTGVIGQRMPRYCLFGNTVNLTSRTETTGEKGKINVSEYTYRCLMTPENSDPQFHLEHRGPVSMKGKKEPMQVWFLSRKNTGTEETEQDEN
- assay.details: Soluble guanylate cyclase activity assay (cGMP radioimmunoassay)
- Format: biochemical
- settings: NO 10 nM; GTP 50 μM; read-out: IC50, NO-stimulated cGMP production by isolated sGC
pIC50: −log10 of the molar value.
readout: pIC50

1. O=[N+]([O-])c1ccc2nc(Nc3ccc(O)cc3)c(Nc3ccc(O)cc3)nc2c1 : 4.72

----------
- test.target: purified bovine lung sGC (Bos taurus, UniProt P16068+P19687)
- Construct: screened at 100 μM against purified bovine lung sGC; purchased Enzo lifesciences ALX-202-039-C005; host or cells: bovine lung
- assay.details: Soluble guanylate cyclase activity assay (cGMP radioimmunoassay)
- Format: biochemical
- settings: NO 10 nM; GTP 200 μM; read-out: IC50, NO-stimulated cGMP production by isolated sGC
pIC50: −log10 of the molar value.
readout: pIC50

1) O=[N+]([O-])c1ccc2nc(Nc3ccc(O)cc3)c(Nc3ccc(O)cc3)nc2c1 [Compound 10] : 4.72

----------
- test.target: full-length enzyme (sGC) (Homo sapiens, UniProt Q02108+Q02153)
- Construct: Full-length human recombinant guanylyl cyclase (soluble)
- Sequence (Q02108 1-690): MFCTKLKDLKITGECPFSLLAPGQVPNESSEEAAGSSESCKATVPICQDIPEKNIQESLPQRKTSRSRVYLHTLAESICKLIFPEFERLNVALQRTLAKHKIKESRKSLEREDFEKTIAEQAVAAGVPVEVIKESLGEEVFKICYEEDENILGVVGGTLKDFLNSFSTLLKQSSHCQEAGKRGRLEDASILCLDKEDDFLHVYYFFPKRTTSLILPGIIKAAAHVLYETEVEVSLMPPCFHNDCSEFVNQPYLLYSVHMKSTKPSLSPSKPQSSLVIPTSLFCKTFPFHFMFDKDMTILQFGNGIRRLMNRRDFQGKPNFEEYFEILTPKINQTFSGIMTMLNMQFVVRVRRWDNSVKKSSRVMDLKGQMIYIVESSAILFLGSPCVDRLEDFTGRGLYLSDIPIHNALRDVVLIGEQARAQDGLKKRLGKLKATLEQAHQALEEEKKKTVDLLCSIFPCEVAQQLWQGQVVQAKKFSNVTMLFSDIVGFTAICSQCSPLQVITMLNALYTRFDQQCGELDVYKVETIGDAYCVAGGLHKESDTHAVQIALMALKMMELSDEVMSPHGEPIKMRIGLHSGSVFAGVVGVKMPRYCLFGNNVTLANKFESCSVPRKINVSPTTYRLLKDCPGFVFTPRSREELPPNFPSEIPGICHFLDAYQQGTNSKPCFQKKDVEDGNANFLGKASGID
- Sequence (Q02153 1-619): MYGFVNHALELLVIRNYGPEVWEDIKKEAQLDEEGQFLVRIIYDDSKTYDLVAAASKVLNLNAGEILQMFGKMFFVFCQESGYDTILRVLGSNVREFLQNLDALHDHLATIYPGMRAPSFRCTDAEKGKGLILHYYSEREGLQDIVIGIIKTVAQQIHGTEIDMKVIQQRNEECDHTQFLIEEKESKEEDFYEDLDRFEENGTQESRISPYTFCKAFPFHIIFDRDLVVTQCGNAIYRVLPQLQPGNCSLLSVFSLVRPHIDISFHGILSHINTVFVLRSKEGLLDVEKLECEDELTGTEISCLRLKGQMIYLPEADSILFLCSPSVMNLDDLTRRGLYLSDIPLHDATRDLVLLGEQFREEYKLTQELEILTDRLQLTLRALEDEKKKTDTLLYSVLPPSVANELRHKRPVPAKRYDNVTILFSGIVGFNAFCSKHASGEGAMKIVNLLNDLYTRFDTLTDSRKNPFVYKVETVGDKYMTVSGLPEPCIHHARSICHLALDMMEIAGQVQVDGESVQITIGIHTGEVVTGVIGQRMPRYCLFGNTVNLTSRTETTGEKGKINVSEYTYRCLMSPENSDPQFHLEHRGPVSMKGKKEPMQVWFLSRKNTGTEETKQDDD
- assay.details: SPR binding to full-length sGC
- Method: Full-length human recombinant guanylyl cyclase (soluble) and bovine lung guanylyl cyclase (soluble) were obtained from Enzo lifesciences (catalogue numbers ALX-201-177 and ALX-202-039-C005). Biacore consumables were purchased from GE Healthcare (UK), including buffer stock solutions. […] Starting materials were either commercially available or synthesized according to methods reported in the literature. ^1H and ^13C NMR spectra were recorded on a Bruker AMX-300 or a Bruker AMX-500 spectrometer. […]
pKd: −log10 of the molar value.
readout: pKd

1. O=[N+]([O-])c1ccc2nc(Nc3ccc(O)cc3)c(Nc3ccc(O)cc3)nc2c1 [Compound 10] : 4.71

----------
- test.target: membrane-bound GCs (pGC) (Rattus norvegicus, UniProt P18910)
- Sequence (P18910 29-1057): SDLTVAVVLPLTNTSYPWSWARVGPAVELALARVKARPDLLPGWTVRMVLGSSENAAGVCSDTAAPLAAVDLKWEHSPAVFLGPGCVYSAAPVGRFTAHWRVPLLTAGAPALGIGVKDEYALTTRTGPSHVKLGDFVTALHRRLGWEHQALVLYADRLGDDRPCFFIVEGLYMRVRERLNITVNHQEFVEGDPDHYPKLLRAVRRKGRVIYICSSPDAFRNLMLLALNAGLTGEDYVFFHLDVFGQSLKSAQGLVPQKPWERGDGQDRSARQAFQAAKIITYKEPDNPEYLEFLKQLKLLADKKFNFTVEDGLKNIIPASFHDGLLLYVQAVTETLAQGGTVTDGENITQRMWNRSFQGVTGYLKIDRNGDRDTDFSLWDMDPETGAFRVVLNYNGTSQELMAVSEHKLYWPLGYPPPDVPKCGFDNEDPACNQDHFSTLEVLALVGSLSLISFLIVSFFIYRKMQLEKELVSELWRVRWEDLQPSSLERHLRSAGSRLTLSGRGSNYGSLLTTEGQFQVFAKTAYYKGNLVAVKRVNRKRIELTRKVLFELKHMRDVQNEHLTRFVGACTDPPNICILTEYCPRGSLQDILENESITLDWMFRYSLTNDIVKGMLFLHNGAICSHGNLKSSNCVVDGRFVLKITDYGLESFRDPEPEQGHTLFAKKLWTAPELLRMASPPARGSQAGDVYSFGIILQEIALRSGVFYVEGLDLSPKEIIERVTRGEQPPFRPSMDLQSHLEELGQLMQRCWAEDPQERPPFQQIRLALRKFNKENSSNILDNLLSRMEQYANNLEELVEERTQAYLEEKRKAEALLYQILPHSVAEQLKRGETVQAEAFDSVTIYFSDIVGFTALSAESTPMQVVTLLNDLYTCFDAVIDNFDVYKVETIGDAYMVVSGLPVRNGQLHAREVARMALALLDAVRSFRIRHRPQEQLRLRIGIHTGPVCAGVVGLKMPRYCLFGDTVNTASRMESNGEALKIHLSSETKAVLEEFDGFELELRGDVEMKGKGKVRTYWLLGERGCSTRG
- assay.details: Particulate guanylate cyclase assay in purified rat lung membranes
- Type: biochemical
- settings: Basal (listed under ANP group)
- Protocol: Purified rat lung membranes (20 μg protein/200 μL) were incubated in Tris buffer with 10 mM phosphocreatine, 10 units/mL creatine phosphokinase, and 10 μM ODQ to inhibit NO-activated GC. The reaction took place with 0.3 mM MgCl, 0.5 mM MgATP, and 1 mM MgGTP, at 37 °C. The compound was added and 1 μM ANP used to activate pGC. cGMP formation was allowed to proceed for 10.5–12.5 min and was subsequently measured by radioimmunoassay.
readout: IC50 (µM)

1. O=[N+]([O-])c1ccc2nc(Nc3ccc(O)cc3)c(Nc3ccc(O)cc3)nc2c1 [Compound 10] : 15

----------
- test.target: purified bovine lung sGC (Bos taurus, UniProt P16068+P19687)
- Construct: screened at 100 μM against purified bovine lung sGC; purchased Enzo lifesciences ALX-202-039-C005; host or cells: bovine lung
- assay.details: Soluble guanylate cyclase activity assay (cGMP radioimmunoassay)
- Type: biochemical
- settings: GC activator cinaciguat 1 μM, no NO; read-out: IC50 (μM) ± SE
readout: IC50 (µM)

1. O=[N+]([O-])c1ccc2nc(Nc3ccc(O)cc3)c(Nc3ccc(O)cc3)nc2c1 [Compound 10] : 37

----------
- test.target: sGCcat (Homo sapiens, UniProt Q02108+Q02153)
- Construct: a smaller construct of the catalytic domain (sGCcat)
- Sequence (Q02108 481-608 limits assumed): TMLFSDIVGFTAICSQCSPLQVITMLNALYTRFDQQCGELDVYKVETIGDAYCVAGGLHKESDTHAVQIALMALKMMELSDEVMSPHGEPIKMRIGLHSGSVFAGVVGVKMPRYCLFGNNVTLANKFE
- Sequence (Q02153 421-554 limits assumed): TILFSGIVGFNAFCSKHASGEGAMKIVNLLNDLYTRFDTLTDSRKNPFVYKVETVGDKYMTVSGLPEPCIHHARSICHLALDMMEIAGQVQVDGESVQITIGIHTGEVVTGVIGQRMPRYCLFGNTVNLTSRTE
- assay.details: SPR binding to catalytic domain of sGC
- settings: listed as D12
readout: Kd

1) O=[N+]([O-])c1ccc2nc(Nc3ccc(O)cc3)c(Nc3ccc(O)cc3)nc2c1 : 11 µM

----------
- test.target: sGCcat (Homo sapiens, UniProt Q02108+Q02153)
- Construct: a smaller construct of the catalytic domain (sGCcat)
- assay.details: SPR binding to catalytic domain of sGC
- settings: Biacore T200, 25 °C
Below: a set of entries, each annotated with reported sGCcat (SPR) binding norm. resp. (RU).
readout: sGCcat (SPR) binding norm. resp. (RU)

1. O=[N+]([O-])c1ccc2nc(Nc3ccc(O)cc3)c(Nc3ccc(O)cc3)nc2c1 : 14.4 ± 1.7 RU
2. COc1ccc(Nc2nc3ccc([N+](=O)[O-])cc3nc2Nc2ccc(OC)cc2)cc1 : 1.0 ± 0.3 RU
3. Oc1cccc(Nc2nc3ccc(Cl)cc3nc2Nc2cccc(O)c2)c1 : 9.0 ± 0.4 RU
4. CNC(=O)c1ccc2nc(Nc3ccc(O)cc3)c(Nc3ccc(O)cc3)nc2c1 : 1.1 ± 0.3 RU
